Reported koff values follow for various binders
Tested system: T1, human monomeric EGFR (EGFR.mmh) (human, UniProt P00533 25-647)
T1 construct: Soluble monomeric EGFR construct
Test method notes: SPR 37C, mAb captured by anti-human Fc, EGFR.mmh analyte
Answer with a number only, understood to be in s⁻¹.

Observe how each entry below is paired with its result.
{"Binder": "H1H089N (antibody, human IgG1, V domains shown, Tested in human IgG1 Fc format (H1H); also called H1M089N) VH: EVQLVESGGGLVQPGRSLRLSCAASGFTFDDYAMHWVRQAPGKGLEWVSGINWNSDKIAYADSVKGRFTISRDNAENSLFLQMNSLRPEDTALYYCVKRGDFWTDYYDYWGQGTLVTVSS VL: DIVMTQSPLSLPVTPGEPASISCRSSQSLLHSNGHNYLDWYLQKPGQSPHLLIYLVSNRASGVPDRFSGSGSGTDFTLKISRVEAEDVGVYYCIQALQTPWTFGQGTKVEIK", "Property name": "koff", "Observed": 0.00683}
{"Binder": "H1H086N (antibody, human IgG1, V domains shown, Tested in human IgG1 Fc format (H1H); also called H1M086N) VH: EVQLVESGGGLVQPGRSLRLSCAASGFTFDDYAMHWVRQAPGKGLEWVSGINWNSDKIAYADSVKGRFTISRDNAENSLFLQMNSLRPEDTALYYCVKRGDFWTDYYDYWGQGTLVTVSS VL: DIVMTQSPLSLPVTPGEPASISCRSSQSLLHSNGYNYLDWYLQKPGQSPHLLIYLVSTRASGVPDRFSGSGSGTDFTLKISRVEAEDVGVYYCMQALQTPWTFGQGTKVEIK", "Property name": "koff", "Observed": 0.000708}

Consider the additional binder presented here.
Q: For the binder H1H153P (antibody, human IgG1, V domains shown, Human IgG1 Fc (H1H)) VH: QVQLVESGGGVVQPGKSLRLSCAASGFTFSIYGMNWVRQAPGKGLDWVAVISDDGSNKDYVDSVRGRFTISRDNSKNTLYLQMNSLSAEDTAVYYCAKDRITGTHYYGLDVWGQGTTVTVSS VL: DIQMTQSPSSLSASVGDRITITCRASQDIANYLAWFQQKPGNAPTSLIYAASILQSGVPSKFSGSGSGTDFTLTITSLQPEDFASYYCQQYNRKPWTFGRGTKVEIK , give its measured koff value.
Ans: 0.000235
